- Method summary: inhibition of 3D7 malaria parasite growth – strain 3D7 (AID 2306);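 also: 0% = DMSO wells and 100% = chloroquine plus artemisinin control wells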
- Condition details: P. falciparum 3D7 erythrocytic growth, LDH absorbance, 72 h; at 2 µM; hits give high values
Quantity name: growth inhibition (%)
Enter your answer as a number in %; do not include the unit.

Use the examples below as a reference point.
CC(C)CCN=C(N)c1ccc(OCCCCCOc2ccc(C(N)=NCCC(C)C)cc2)cc1 = 98
Cc1ccc(NC(=O)c2ccc(CN3CCCN(Cc4cccc(O)c4)CC3)cc2)cc1C = 98
COc1ccc(CCNc2nc(SCc3ccccc3Cl)nc3ccccc23)cc1OC = 94
Cc1ccoc1C(=O)Nc1cccc(-c2cccc(-c3nc4c(C)cccc4[nH]3)c2)c1 = 101
Cc1cc(-c2ccc3c(c2)CCN(CCC2CCC(NC(=O)/C=C/c4ccccc4F)CC2)CC3)on1 (stereo not given) = 94
O=C(CCc1cccnc1)Nc1ccc(-c2cccc(-c3nc4ccc(F)cc4[nH]3)c2)cc1 = 86

Exam item: Return reported growth inhibition; argument: "Cc1ccc(-n2c(C)nc3c(Nc4ccc(-c5ccncc5)cc4)ncnc32)c(C)c1"
Marked response: 99

Exam item: Return reported growth inhibition; argument: "COc1cc(CNc2ccc(N3CCCC3)cc2)cc(Cl)c1OC"
Marked response: 100

Exam item: Return reported growth inhibition; argument: "O=C(Nc1cccc(CN2CCN(C(=O)c3cccc(F)c3)CC2)c1)c1ccco1"
Marked response: 88

Exam item: Return reported growth inhibition; argument: "CN(C)C=Nc1ccc(OCCCCCCOc2ccc(N=CN(C)C)cc2)cc1"
Marked response: 101

Exam item: Return reported growth inhibition; argument: CC(C)C1C(O)=C(c2ccc3ccccc3c2)C(=O)N1Cc1ccsc1 (stereo not given)
Marked response: 88

Exam item: Return reported growth inhibition; argument: "O=[N+]([O-])c1ccccc1C=NNc1ccnc2cc(Cl)ccc12"
Marked response: 101

Exam item: Return reported growth inhibition; argument: "CCCCCCn1c(Sc2ccc(C#N)c([N+](=O)[O-])c2)nnc1-c1ccc(Cl)cc1"
Marked response: 93

Exam item: Return reported growth inhibition; argument: "CCOc1cc(CC)ccc1C1CCN(CCN2CCC(CNC(=O)c3ccc(-c4ccc(C#N)cc4)cc3)CC2)CC1"
Marked response: 89

Exam item: Return reported growth inhibition; argument: "COc1cc2ncnc(Nc3ccc(OCc4ccccc4Br)c(OC)c3)c2cc1OC"
Marked response: 100

Exam item: Return reported growth inhibition; argument: "C=C(NC(=O)C1CCCCC1)C(=O)OC"
Marked response: 93

Exam item: Return reported growth inhibition; argument: "COc1cccc(NC(=O)NCCNc2ccnc(Nc3ccc(F)cc3)n2)c1"
Marked response: 94

Exam item: Return reported growth inhibition; argument: COc1ccc(CC(=O)NC(CCN2CCC3(CCc4ccccc43)CC2)c2ccc(Cl)c(Cl)c2)cc1 (stereo not given)
Marked response: 90

Exam item: Return reported growth inhibition; argument: "Cn1nccc1C(=O)NCCNCc1cccc(-c2ccc(-c3nc4ccccc4[nH]3)s2)c1"
Marked response: 100

Exam item: Return reported growth inhibition; argument: "CNC(=O)c1ccc2nc(C3CC3)n(CC3CCN(S(=O)(=O)c4cccc(Cl)c4)CC3)c2c1"
Marked response: 100

---

- Method summary: antimalarial activity against Dd2 strain (AID 2302);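 also: 0% = DMSO untreated growth and 100% = chloroquine plus artemisinin killed control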
- Condition details: P. falciparum Dd2 in RBCs, LDH growth readout, 72 h; at 2 µM
Calls of active or inactive are those of the source.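 How the source made its calls: active means growth inhibition above 50% at the single 2 µM test dose, taken to imply half-maximal potency below 2 µM; inactive means the rest.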
Reply using exactly one outcome from active, inactive

Exam item: Hi team, can someone confirm the assay call for "CCCCN1CCN(CCCNc2c3ccccc3nc3ccccc23)CC1" ?
Marked response: active

Exam item: Hi team, can someone confirm the assay call for "Cc1nnsc1C(=O)Nc1ccc(-c2cccc(-c3nc4c(C)cccc4[nH]3)c2)cc1" ?
Marked response: inactive

Exam item: Hi team, can someone confirm the assay call for Cc1ccc(NC(=O)NC2CCN(c3ccnc4cc(Cl)ccc34)C2)cc1 (centres undefined) ?
Marked response: active

Exam item: Hi team, can someone confirm the assay call for "O=C(Nc1cccc(F)c1)N(Cc1ccc(-c2cccc(CN3CCNCC3)c2)cc1)C1CCN(Cc2ccccc2)CC1" ?
Marked response: active

Exam item: Hi team, can someone confirm the assay call for "COc1ccccc1-c1cccc2c(NC(=O)Nc3ccc4nccc(N5CCN(C)CC5)c4c3)ccnc12" ?
Marked response: inactive

Exam item: Hi team, can someone confirm the assay call for "CC(C)CCn1c(Sc2ccc(C#N)c([N+](=O)[O-])c2)nnc1-c1ccc(Cl)cc1" ?
Marked response: inactive

Exam item: Hi team, can someone confirm the assay call for CNC(=O)C(NC(=O)c1ccccc1C(=O)OC)c1ccccc1 (centres undefined) ?
Marked response: inactive

Exam item: Hi team, can someone confirm the assay call for "COc1cccc(-c2ccc3c(-c4ccc(F)cc4)cnc(N)c3c2)c1" ?
Marked response: active

Exam item: Hi team, can someone confirm the assay call for "COc1ccccc1CNC(=O)c1ccc(N2CCN(c3ccncc3)CC2)cn1" ?
Marked response: inactive

Exam item: Hi team, can someone confirm the assay call for "O=C(NCCCCN1CCC(c2ccc3ccccc3c2O)CC1)c1ccc(NC(=O)c2ccc(Cl)cc2)cc1" ?
Marked response: active

Exam item: Hi team, can someone confirm the assay call for O=C(Cc1ccccc1)NC(c1ccco1)c1cc(Cl)c2cccnc2c1O (centres undefined) ?
Marked response: active

Exam item: Hi team, can someone confirm the assay call for CCOc1ccccc1CCNC(C)Cc1ccc(C(=O)Nc2ccc(CC(C)NCCc3cccc(Cl)c3)cc2)cc1 (centres undefined) ?
Marked response: active

Exam item: Hi team, can someone confirm the assay call for "O=C(Nc1cccc(OC2CCN(Cc3ccc(F)cc3)CC2)c1)c1ccc(C(F)(F)F)cc1" ?
Marked response: inactive

Exam item: Hi team, can someone confirm the assay call for "NC(N)=Nc1ccc(CCc2ccc(N=C(N)N)cc2)cc1" ?
Marked response: active

Exam item: Hi team, can someone confirm the assay call for COc1cccc(NC(=O)Nc2ccc(-c3oc(C(=O)NCC(c4ccccc4)N(C)C)cc3-c3ccncc3)cc2)c1 (centres undefined) ?
Marked response: active

Exam item: Hi team, can someone confirm the assay call for "CC(C)(C)c1ccc(CN(C[C@@H](O)CNS(=O)(=O)c2cc(Cl)cc(Cl)c2)C(C)(C)C)cc1" ?
Marked response: active

Exam item: Hi team, can someone confirm the assay call for "Cc1nc(C)c(CC(=O)Nc2cccc(-c3cccc(-c4nc5c(C)cccc5[nH]4)c3)c2)s1" ?
Marked response: inactive

Exam item: Hi team, can someone confirm the assay call for O=C(C=Cc1ccc(Cl)c(Cl)c1)NCCCCCN1CCCC(CCCNC(=O)/C=C/c2ccccc2)C1 (centres undefined) ?
Marked response: inactive

Exam item: Hi team, can someone confirm the assay call for "FC(F)(F)c1ccc(/C=C/c2cncnc2Nc2ccc3nc(Cc4ccccc4)[nH]c3c2)cc1" ?
Marked response: active

---

- Method summary: inhibition of 3D7 malaria parasite growth – strain 3D7 (AID 2306);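 also: 0% = DMSO wells and 100% = chloroquine plus artemisinin control wells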
- Condition details: P. falciparum 3D7 erythrocytic growth, LDH absorbance, 72 h; at 2 µM; hits give high values
Readings of growth inhibition for the listed molecules
Enter your answer as a number in %; do not include the unit.

Nc1nc(N)c2c(ccc3nn(S(=O)(=O)N4CCCC4)cc32)n1 = 95

Exam item: Return reported growth inhibition; argument: Cc1ccccc1C1CCN(C2CCC(NC(=O)/C=C/c3cccc(Cl)c3)CC2)CC1 (centres undefined)
Marked response: 98

Exam item: Return reported growth inhibition; argument: "CCN(CC)CCN(Cc1ccc(-c2ccc(C(F)(F)F)cc2)cc1)C(=O)Cn1c(CCc2cc(F)ccc2F)nc(=O)c2ccccc21"
Marked response: 98

---

- Target: Calcium-dependent protein kinase 1 (Plasmodium falciparum (isolate 3D7))
- Method summary: PfCDPK1 kinase inhibitors, biochemical, TCAMS library (AID 1159585);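 also: inhibitors leave more ATP so luminescence rises with inhibition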
- Condition details: recombinant PfCDPK1, Kinase-Glo ATP depletion luminescence
Potency and affinity values are given separately. Calls of active or inactive are those of the source. The limit is not given here; nearly all actives have IC50 up to about 0.98 µM.
Quantity name: outcome

Use the examples below as a reference point.
O=C(NCc1cccc(CN2CCOCC2)c1)c1cc(Br)cc(N2CCN(c3ccncc3)CC2)c1 = inactive
Cc1cc2nc(NC3=NC4(c5ccccn5)N=C(Nc5nc6cc(C)c(C)cc6[nH]5)NC4(c4ccccn4)N3)[nH]c2cc1C (centres undefined) = inactive
CCCNc1nc(NCc2c(C)cccc2C)nc(NC(C)(C)C)n1 = inactive
Cc1[nH]cc(Br)c(=O)c1-c1ccc(Oc2ccc(OC(F)(F)F)cc2)cc1 = inactive
CN(C)Cc1cccc(-c2ccc3ccnc(N)c3c2)c1 = inactive
COc1cc(C=CC(=O)N2CCC(CCN3CCC(c4c[nH]c5ccccc45)CC3)CC2)cc(OC)c1 = inactive

Exam item: Return reported outcome; argument: COC(=O)c1ccc2c(c1)nc(Nc1cccc(F)c1)n2CC(O)c1ccccn1 (centres undefined)
Marked response: inactive

Exam item: Return reported outcome; argument: "CCN(CCCN1CCCCC1)c1cc(C)nc(Nc2cc(Cl)cc(Cl)c2)n1"
Marked response: inactive

Exam item: Return reported outcome; argument: "Cc1cccc2[nH]c(-c3cccc(-c4cccc(NC(=O)NCc5cccc(F)c5)c4)c3)nc12"
Marked response: inactive
